Test: Pharmacokinetic evaluation in mice after single IV and PO administration
Assay type: in vivo
Conditions: female, mouse; Balb/c mice, plasma, IV
measuredEndpoint: half-life (h)
The figure you give is taken to be in h; do not add the unit.

Query CCS(=O)(=O)c1ccc(CNC(=O)c2cc3c(s2)C(C(C)C)N(C[C@H]2CC[C@H](C(F)(F)F)CC2)C3)nc1 (single isomer, unassigned) yields half-life of 6.84

* * *

Assay: Pharmacokinetic evaluation in mice after single IV and PO administration
Type: in vivo
Parameters: concentration or dose not given beside the values
Conditions: female, mouse; Balb/c mice, plasma, PO
measuredEndpoint: AUC(0-inf)

Query CCS(=O)(=O)c1ccc(CNC(=O)c2cc3c(s2)C(C(C)C)N(C[C@H]2CC[C@H](C(F)(F)F)CC2)C3)nc1 (single isomer, unassigned) yields AUC(0-inf) of 35.1 µM·h

* * *

Experiment: Pharmacokinetic evaluation in mice after single IV and PO administration
Format: in vivo
Design: concentration or dose not given beside the values
Conditions: female, mouse; Balb/c mice, plasma, IV
measuredEndpoint: AUC(0-inf) (µM·h)
The figure you give is taken to be in µM·h; do not add the unit.

Query CCS(=O)(=O)c1ccc(CNC(=O)c2cc3c(s2)C(C(C)C)N(C[C@H]2CC[C@H](C(F)(F)F)CC2)C3)nc1 (single isomer, unassigned) yields AUC(0-inf) of 3.92

* * *

Assay: Pharmacokinetic evaluation in mice after single IV and PO administration
Assay type: in vivo
Conditions: female, mouse; Balb/c mice, plasma, PO
measuredEndpoint: bioavailability (%)
The figure you give is taken to be in %; do not add the unit.

Query CCS(=O)(=O)c1ccc(CNC(=O)c2cc3c(s2)C(C(C)C)N(C[C@H]2CC[C@H](C(F)(F)F)CC2)C3)nc1 (single isomer, unassigned) yields bioavailability of 89.7

* * *

The entries below come with measured pEC50 values attached.
Biological target: RORγ (Homo sapiens, UniProt P51449)
Sequence (P51449 97-518): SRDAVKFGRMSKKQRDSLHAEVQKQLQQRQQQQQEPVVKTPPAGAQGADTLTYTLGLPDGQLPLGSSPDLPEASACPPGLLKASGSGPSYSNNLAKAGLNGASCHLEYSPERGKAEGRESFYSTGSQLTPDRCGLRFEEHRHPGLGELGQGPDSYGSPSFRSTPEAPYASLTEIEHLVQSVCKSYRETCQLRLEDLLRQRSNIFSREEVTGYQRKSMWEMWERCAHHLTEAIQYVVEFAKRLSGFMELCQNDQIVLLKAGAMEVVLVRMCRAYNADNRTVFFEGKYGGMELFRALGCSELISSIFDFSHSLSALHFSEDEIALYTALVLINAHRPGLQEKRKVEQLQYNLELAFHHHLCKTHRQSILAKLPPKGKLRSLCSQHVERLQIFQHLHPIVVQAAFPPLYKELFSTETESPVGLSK
Assay: In vitro test for inhibitory activity on RORγ: luciferase reporter cells expressing chimeric Gal4-RORγ receptor
Type: cell-based
Details: Specific value of the concentration required for 50% inhibition (EC50) of RORγ, Gal4 hybrid receptor luciferase reporter, HEK293, 24 hours incubation
Lab note: report pEC50 as minus log10 of the concentration in molar units, number only.

Query CCS(=O)(=O)c1ccc(CNC(=O)c2cc3c(s2)C(C(C)C)N(C[C@H]2CC[C@H](C(F)(F)F)CC2)C3)nc1 (single isomer, unassigned) [Example 1] yields pEC50 of 7.80

Continuing:
Query CCS(=O)(=O)c1ccc(CNC(=O)c2cc3c(s2)C(C(C)C)N(CC2CCC(C(F)(F)F)CC2)C3=O)nc1 (single isomer, unassigned) [Example 3] yields pEC50 of 6.83

* * *

Test: Pharmacokinetic evaluation in mice after single IV and PO administration
Type: in vivo
Conditions: female, mouse; Balb/c mice, plasma, IV; read-out: MRT0-last
Method: Balb/c mice (female, 15 to 30 g, 7- to 9-week old, Shanghai Lingchang) were used to test in vivo pharmacokinetics of compounds. The experimental method was as follows. The pharmacokinetic characteristics of the compounds were tested by standard protocols after the compounds were administered to rodents by intravenous injection and oral administration. […]
measuredEndpoint: MRT last (h)
The figure you give is taken to be in h; do not add the unit.

Query CCS(=O)(=O)c1ccc(CNC(=O)c2cc3c(s2)C(C(C)C)N(C[C@H]2CC[C@H](C(F)(F)F)CC2)C3)nc1 (single isomer, unassigned) yields MRT last of 5.91

* * *

Target: RORC2-LBD (Homo sapiens, UniProt P51449)
Sequence (P51449 269-508 limits assumed): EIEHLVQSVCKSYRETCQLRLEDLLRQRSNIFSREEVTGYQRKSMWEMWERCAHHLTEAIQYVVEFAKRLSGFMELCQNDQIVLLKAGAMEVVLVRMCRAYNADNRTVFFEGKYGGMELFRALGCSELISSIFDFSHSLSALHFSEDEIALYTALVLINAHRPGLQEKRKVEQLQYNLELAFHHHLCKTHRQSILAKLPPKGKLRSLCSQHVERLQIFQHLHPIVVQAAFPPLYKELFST
Experiment: In vitro test for inhibitory activity on RORγ: TR-FRET screening (RORC2-LBD / SRC1 peptide interaction)
Settings: Value of the concentration required for 50% inhibition (EC50) of RORγ, 15 nM RORc-LBD, 200 nM SRC1 peptide, 4° C. overnight
measuredEndpoint: EC50

Solved cases below.
// molecule CCS(=O)(=O)c1ccc(CNC(=O)c2cc3c(s2)C(C(C)C)N(Cc2ccc(C(F)(F)F)cc2)C3)nc1 (stereo not shown) , assay RORC2-LBD (Homo sapiens, UniProt P51449), EC50 value: < 0.1 µM

// molecule CCS(=O)(=O)c1ccc(CNC(=O)c2cc3c(s2)C(C(C)C)N(C[C@H]2CC[C@H](C(F)(F)F)CC2)C3)nc1 (single isomer, unassigned) , assay RORC2-LBD (Homo sapiens, UniProt P51449), EC50 value: < 0.1 µM

// molecule CCS(=O)(=O)c1ccc(CNC(=O)c2cc3c(s2)C(C(C)C)N(CC2CCC(C(F)(F)F)CC2)C3=O)nc1 (single isomer, unassigned) [Example 4] , assay RORC2-LBD (Homo sapiens, UniProt P51449), EC50 value: 1 to 5 µM

Continuing:
// molecule CCS(=O)(=O)c1ccc(CNC(=O)c2cc3c(s2)C(C(C)C)N(CC2CCC(C(F)(F)F)CC2)C3=O)nc1 (single isomer, unassigned) [Example 3] , assay RORC2-LBD (Homo sapiens, UniProt P51449), EC50 value: 0.1 to 0.5 µM

* * *

Assay: Pharmacokinetic evaluation in mice after single IV and PO administration
Type: in vivo
Details: female, mouse; Balb/c mice, plasma, IV
measuredEndpoint: C0 (nM)
The figure you give is taken to be in nM; do not add the unit.

Query CCS(=O)(=O)c1ccc(CNC(=O)c2cc3c(s2)C(C(C)C)N(C[C@H]2CC[C@H](C(F)(F)F)CC2)C3)nc1 (single isomer, unassigned) [Example 1] yields C0 of 955

* * *

Assay: Pharmacokinetic evaluation in mice after single IV and PO administration
Assay type: in vivo
Details: female, mouse; Balb/c mice, plasma, PO; read-out: MRT0-last
measuredEndpoint: MRT last (h)
The figure you give is taken to be in h; do not add the unit.

Query CCS(=O)(=O)c1ccc(CNC(=O)c2cc3c(s2)C(C(C)C)N(C[C@H]2CC[C@H](C(F)(F)F)CC2)C3)nc1 (single isomer, unassigned) yields MRT last of 7.19

* * *

Test: Pharmacokinetic evaluation in mice after single IV and PO administration
Assay type: in vivo
Details: female, mouse; Balb/c mice, plasma, PO
measuredEndpoint: Tmax

Query CCS(=O)(=O)c1ccc(CNC(=O)c2cc3c(s2)C(C(C)C)N(C[C@H]2CC[C@H](C(F)(F)F)CC2)C3)nc1 (single isomer, unassigned) [Example 1] yields Tmax of 1 h

* * *

Assay: Pharmacokinetic evaluation in mice after single IV and PO administration
Type: in vivo
Set-up: concentration or dose not given beside the values
Details: female, mouse; Balb/c mice, plasma, PO
measuredEndpoint: AUC(0-t) (µM·h)
The figure you give is taken to be in µM·h; do not add the unit.

Query CCS(=O)(=O)c1ccc(CNC(=O)c2cc3c(s2)C(C(C)C)N(C[C@H]2CC[C@H](C(F)(F)F)CC2)C3)nc1 (single isomer, unassigned) yields AUC(0-t) of 30.9
